Counter-ions that a name gives are not always drawn.
Recorded melting point for the following compounds

Before answering, review these 4 worked examples.
{"columns": ["Compound", "Experimental Endpoint", "Value Reported"],
 "data": [
  ["COc1cc(S(=O)(=O)c2ccc3c(c2)nc(C(C)(C)C)n3CC2CCOCC2)c(F)cn1 [Co. No. 72]", "melting point", "139.6 to 140.2 °C"],
  ["CC(C)(C)c1nc2cc(S(=O)(=O)c3cc(O)ncc3F)ccc2n1CC1CCOCC1 [Co. No. 82]", "melting point", "291.8 to 294.6 °C"],
  ["COCCNC(=O)c1ccc(S(=O)(=O)c2ccc3c(c2)nc(C(C)(C)C)n3CC2CCCCC2)nc1 [Co. No. 37]", "melting point", "206 to 207 °C"],
  ["CC(C)(C)c1nc2cc(S(=O)(=O)c3ccc(S(N)(=O)=O)s3)ccc2n1CC1CCOCC1 (as salt: HCl) [Co. No. 47]", "melting point", "255 to 260 °C"]
]}

Requested field: melting point. Item: CC(O)c1ccc(S(=O)(=O)c2ccc3c(c2)nc(C(C)(C)C)n3CC2CCOCC2)nc1 (stereo not drawn) [Co. No. 42]
177 to 179 °C

For the compound CC(=O)c1ccc(S(=O)(=O)c2ccc3c(c2)nc(C(C)(C)C)n3CC2CCOCC2)nc1 [Co. No. 4] , what melting point is on record?
> 120 °C

Item under review: CC(C)(C)c1nc2cc(S(=O)(=O)c3ccc(C#N)o3)ccc2n1CC1CCOCC1 [Co. No. 60] . Reported melting point?
145.5 to 145.7 °C

Need melting point, item COC(=O)c1ccc(S(=O)(=O)c2ccc3c(c2)nc(C(C)(C)C)n3CC2CCOCC2)nc1 [Co. No. 30]
195 to 197 °C

Query (compound): CC(C)(C)c1nc2cc(S(=O)(=O)c3cncc(C#N)c3)ccc2n1CC1CCCCC1 [Co. No. 36] ; field requested: melting point
215 to 216 °C

----------
Molecular target: human CB1 (hCB1) receptor (Homo sapiens)
Construct: expressed in transfected cells; host or cells: CHO-K1
Sequence (P21554 whole entry): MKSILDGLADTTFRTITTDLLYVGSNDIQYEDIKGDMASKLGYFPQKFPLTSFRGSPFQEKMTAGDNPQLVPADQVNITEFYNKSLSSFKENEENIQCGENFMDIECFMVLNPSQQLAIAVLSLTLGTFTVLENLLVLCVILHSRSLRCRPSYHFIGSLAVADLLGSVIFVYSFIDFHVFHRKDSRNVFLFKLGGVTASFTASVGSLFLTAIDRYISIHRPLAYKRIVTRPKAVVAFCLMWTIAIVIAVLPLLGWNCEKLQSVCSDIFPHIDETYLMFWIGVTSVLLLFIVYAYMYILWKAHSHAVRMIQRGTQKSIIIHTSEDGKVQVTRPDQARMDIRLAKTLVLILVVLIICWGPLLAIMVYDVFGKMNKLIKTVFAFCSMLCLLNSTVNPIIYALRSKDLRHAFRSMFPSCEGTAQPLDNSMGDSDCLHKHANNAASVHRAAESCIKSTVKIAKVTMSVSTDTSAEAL
Experiment: Inhibition of forskolin-activated cAMP production upon activation of hCB1 (HTRF), CHO-K1 cells
Type: cell-based
Conditions: CB1 pEC50, hCB1-CHO-K1 cells, forskolin-activated cAMP, pEC50=-log(EC50)
Experimental Endpoint: EC50 (nM)
Quick note: give the figure in nM, leave out the unit.

# annotated cases, reported EC50 shown
{"columns": ["Compound", "Experimental Endpoint", "Uom", "Value Reported"],
 "data": [
  ["Cc1cc(S(=O)(=O)c2ccc3c(c2)nc(C(C)(C)C)n3CC2CCOCC2)ccn1 [Co. No. 13]", "EC50", "nM", 2040],
  ["CC(C)(C)c1nc2cc(S(=O)(=O)c3cncc(C#N)c3)ccc2n1CC1CCCCC1 [Co. No. 36]", "EC50", "nM", 72.4]
]}

// query EC50 value for entry CC(C)(C)c1nc2cc(S(=O)(=O)c3coc(C(F)(F)F)c3)ccc2n1CC1CCOCC1 [Co. No. 106]
316

# lookup: EC50 of CC(C)(C)c1nc2cc(S(=O)(=O)c3sc(S(C)(=O)=O)cc3Br)ccc2n1CC1CCOCC1 [Co. No. 64]
1860

GET /values?readout=EC50&item= CC(=O)NCc1ccc(S(=O)(=O)c2ccc3c(c2)nc(C(C)(C)C)n3CC2CCOCC2)cn1 [Co. No. 117]
977

Need EC50 of CC(C)(C)c1nc2cc(S(=O)(=O)c3ccc(O)nc3)ccc2n1CC1CCCCC1 [Co. No. 39] , thanks.
2040

# query: EC50 of entry CC(C)(C)c1nc2cc(S(=O)(=O)c3ccc(C(N)=O)cn3)ccc2n1CC1CCOCC1 [Co. No. 33]
5750

Given CC(C)(C)c1nc2cc(S(=O)(=O)c3ccnc(N)c3)ccc2n1CC1CCOCC1 [Co. No. 19] , state its recorded EC50.
724

----------
Biological target: human CB2 (hCB2) receptor (Homo sapiens)
Construct: expressed in transfected cells; host or cells: CHO-K1
Sequence (P34972 whole entry): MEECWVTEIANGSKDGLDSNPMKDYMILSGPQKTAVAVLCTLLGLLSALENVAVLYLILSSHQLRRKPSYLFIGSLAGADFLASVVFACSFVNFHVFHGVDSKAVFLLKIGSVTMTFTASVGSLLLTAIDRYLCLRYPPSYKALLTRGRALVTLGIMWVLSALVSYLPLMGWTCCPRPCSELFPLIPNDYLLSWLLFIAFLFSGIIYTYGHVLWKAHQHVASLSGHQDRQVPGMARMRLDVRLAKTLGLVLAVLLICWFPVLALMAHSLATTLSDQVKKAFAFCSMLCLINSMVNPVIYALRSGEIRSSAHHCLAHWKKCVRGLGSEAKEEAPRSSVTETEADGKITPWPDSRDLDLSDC
Assay: Inhibition of forskolin-activated cAMP production upon activation of hCB2 (HTRF), CHO-K1 cells
Type: cell-based
Details: Table C-1; selectivity hCB2 over hCB1
Experimental Endpoint: ratio CB2 agonism over CB1 agonism

{"columns": ["Compound", "ratio CB2 agonism over CB1 agonism"],
 "data": [
  ["COc1ncc(S(C)(=O)=O)cc1S(=O)(=O)c1ccc2c(c1)nc(C(C)(C)C)n2CC1CCOCC1 [Co. No. 78]", ">1380"],
  ["CC(C)(C)c1nc2cc(S(=O)(=O)c3ccc(S(=O)(=O)N4CCOCC4)cn3)ccc2n1CC1CCOCC1 [Co. No. 66]", ">676"],
  ["CC(C)(C)c1nc2cc(S(=O)(=O)c3sc(S(=O)(=O)N4CCOCC4)cc3Br)ccc2n1CC1CCOCC1 [Co. No. 65]", ">3388"],
  ["CC(C)(C)c1nc2cc(S(=O)(=O)c3ccnc(F)c3)ccc2n1CC1CCS(=O)(=O)CC1 [Co. No. 133]", ">2512"],
  ["CC(C)(C)c1nc2cc(S(=O)(=O)c3ccc(S(C)(=O)=O)nc3)ccc2n1CC1CCCCC1 [Co. No. 27]", ">14125"]
]}

Look up ratio CB2 agonism over CB1 agonism: CC(=O)NCCCOc1cc(S(=O)(=O)c2ccc3c(c2)nc(C(C)(C)C)n3CC2CCOCC2)ccn1 [Co. No. 132]
>7079

Which value of ratio CB2 agonism over CB1 agonism has been reported for COCCNC(=O)c1ccc(S(=O)(=O)c2ccc3c(c2)nc(C(C)(C)C)n3CC2CCCCC2)nc1 [Co. No. 37] in the records?
>10839

What value of ratio CB2 agonism over CB1 agonism has been recorded for this entry: CC(C)(C)c1nc2cc([S+]([O-])c3ccncc3Br)ccc2n1CC1CCOCC1 (stereo not drawn) [Co. No. 88]
537

What ratio CB2 agonism over CB1 agonism value was documented for this compound, CC(C)(C)c1nc2cc(S(=O)(=O)c3ccnc(F)c3)ccc2n1CCC1CCOCC1 [Co. No. 128] ?
>4786

If you can, please state the reported ratio CB2 agonism over CB1 agonism value of CCC(CC)Cn1c(C(C)(C)C)nc2cc(S(=O)(=O)c3ccnc(F)c3)ccc21 [Co. No. 147] .
>10471

// returns reported ratio CB2 agonism over CB1 agonism for input CC(C)(C)c1nc2cc(S(=O)(=O)c3ccnc(N)c3)ccc2n1CC1CCOCC1 [Co. No. 19]
638

Consider the compound shown here: CC(C)(C)c1nc2cc(S(=O)(=O)c3ccc(C(N)=O)s3)ccc2n1CC1CCOCC1 [Co. No. 73] What is its recorded ratio CB2 agonism over CB1 agonism?
84

Look at this compound and give its reported ratio CB2 agonism over CB1 agonism. CC(C)(C)c1nc2cc(S(=O)(=O)c3ccnc(F)c3)ccc2n1CC1CCN(C=O)CC1 [Co. No. 112]
>2030

Need ratio CB2 agonism over CB1 agonism of COc1ncc(S(=O)(=O)c2ccc3c(c2)nc(C(C)(C)C)n3CC2CCOCC2)cn1 [Co. No. 111] , thanks.
372

Look up ratio CB2 agonism over CB1 agonism for this compound: CC(C)(C)c1nc2cc(S(=O)(=O)c3ccc(C#N)o3)ccc2n1CC1CCOCC1 [Co. No. 60]
638

----------
Molecular target: human CB1 (hCB1) receptor (Homo sapiens)
Construct: expressed in transfected cells; host or cells: CHO-K1
Assay: Inhibition of forskolin-activated cAMP production upon activation of hCB1 (HTRF), CHO-K1 cells
Type: cell-based
Settings: CB1 pEC50, hCB1-CHO-K1 cells, forskolin-activated cAMP, pEC50=-log(EC50)
pEC50: −log10 of the molar value.
Experimental Endpoint: pEC50

{"columns": ["Smiles Code", "pEC50"],
 "data": [
  ["CC(C)(C)c1nc2cc(S(=O)(=O)c3ccnc(F)c3)ccc2n1CC1CCS(=O)(=O)CC1", "< 5.00"],
  ["CC(C)(C)c1nc2cc(S(=O)(=O)c3ncc(S(C)(=O)=O)cc3Br)ccc2n1CC1CCOCC1", "< 5.00"],
  ["CC(C)(C)OC(=O)NCCCOc1cc(S(=O)(=O)c2ccc3c(c2)nc(C(C)(C)C)n3CC2CCOCC2)ccn1", "< 5.00"]
]}

Attention now turns to another entry.
Given the compound CC(C)(C)c1nc2cc(S(=O)(=O)c3ccnc(OCCCN)c3)ccc2n1CC1CCOCC1 , what is its reported pEC50?
< 5.00
